Ref: ChEMBL document CHEMBL1221285

system.tested: Caspase-1 (Homo sapiens, UniProt P29466)
Sequence (P29466 whole entry): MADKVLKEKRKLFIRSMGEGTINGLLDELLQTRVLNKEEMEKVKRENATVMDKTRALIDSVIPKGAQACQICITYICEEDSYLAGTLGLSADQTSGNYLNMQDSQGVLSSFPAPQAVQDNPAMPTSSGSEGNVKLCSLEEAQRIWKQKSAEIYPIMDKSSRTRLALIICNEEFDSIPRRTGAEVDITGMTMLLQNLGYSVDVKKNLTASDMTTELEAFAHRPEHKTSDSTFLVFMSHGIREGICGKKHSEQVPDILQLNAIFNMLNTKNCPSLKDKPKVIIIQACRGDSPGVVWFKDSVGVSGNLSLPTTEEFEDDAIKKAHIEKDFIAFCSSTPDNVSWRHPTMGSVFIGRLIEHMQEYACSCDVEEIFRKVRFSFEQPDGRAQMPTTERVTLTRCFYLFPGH
Collected log10 Ki values appear next to each entry.
Form field - Quantity: Ki; Unit: nM; Scale: log10

Previously resolved entries follow.
1. COC(=O)C[C@H]1CCC[C@H]2CC(=O)N(OCC(=O)[C@H](CC(=O)O)NC(=O)OCc3ccccc3)[C@@H]12 : 4.18
2. CC(C)[C@H](NC(=O)OCc1ccccc1)C(=O)N[C@@H](C)C(=O)N[C@@H](CC(=O)O)C(=O)CCCCCc1ccccc1 : 2.13
3. O=C(O)C[C@H](NC(=O)OCc1ccccc1)C(=O)COC(=O)CCCc1ccccc1 : 4.20
4. O=C(O)C[C@H](NC(=O)OCc1ccccc1)C(=O)COC(=O)Cc1c[nH]c2ccccc12 : 2.78
5. CC(C(=O)OCC(=O)[C@H](CC(=O)O)NC(=O)OCc1ccccc1)c1cccc2ccccc12 (some centres not stated) : 3.00
6. O=C(O)C[C@H](NC(=O)OCc1ccccc1)C(=O)CONC(=O)CCc1ccccc1 : 4.44

Input O=C(O)C[C@H](NC(=O)OCc1ccccc1)C(=O)CON1C(=O)C2C3C=CC(O3)C2C1=O (some centres not stated) . Output log10 Ki: 3.18

* * *

system.tested: Caspase-1 (Homo sapiens)
procedure.summary: Inhibition of ICE in human PBMC
Note to self: use Fulfilled only for IC50 readings below 3 µM; a reading exactly at 3 µM still gets Not fulfilled.

Record excerpt, results attached:
1) COC(=O)C[C@H]1CCC[C@H]2CC(=O)N(OCC(=O)[C@H](CC(=O)O)NC(=O)[C@H](C)NC(=O)[C@@H](NC(=O)OCc3ccccc3)C(C)C)[C@@H]12 : Not fulfilled
2) CC(C)[C@H](NC(=O)OCc1ccccc1)C(=O)N[C@@H](C)C(=O)N[C@@H](CC(=O)O)C(=O)CCCCCc1ccccc1 : Not fulfilled

Input line: Record CC(=O)N[C@@H](Cc1ccc(O)cc1)C(=O)N[C@H](C(=O)N[C@@H](C)C(=O)N[C@@H](CC(=O)O)C(=O)CCCCCc1ccccc1)C(C)C : is its IC50 strictly below 3 µM?
Output line: Fulfilled

Input line: Lab log: compare recorded IC50 with 3 µM; is it strictly lower for CC(C)[C@H](NC(=O)OCc1ccccc1)C(=O)N[C@@H](C)C(=O)N[C@@H](CC(=O)O)C(=O)COC(=O)CC(c1ccccc1)c1ccccc1 ?
Output line: Not fulfilled

Input line: In the record for CC(C)[C@H](NC(=O)OCc1ccccc1)C(=O)N[C@@H](C)C(=O)N[C@@H](CC(=O)O)C(=O)COC(=O)Cc1cccc2ccccc12 , is IC50 less than 3 µM?
Output line: Fulfilled

Input line: Check if IC50 falls below 3 µM for CC(C)[C@H](NC(=O)OCc1ccccc1)C(=O)N[C@@H](C)C(=O)N[C@@H](CC(=O)O)C(=O)COC(=O)C(Cc1ccccc1)Cc1ccccc1 .
Output line: Fulfilled

Input line: Dear colleague, could you confirm whether IC50 of CC(C)[C@H](NC(=O)OCc1ccccc1)C(=O)N[C@@H](C)C(=O)N[C@@H](CC(=O)O)C(=O)CON1C(=O)C[C@@H]2CCCC[C@@H]21 falls below 3 µM? Thanks.
Output line: Fulfilled
